These entries and their values trace back to patent US20170081400A1.

Entries and their TL1A Binding Level (Late) values follow.
# system.tested: T1, human TL1A extracellular domain with N-terminal HIS and FLAG tag (human, UniProt O95150 72-251)
# T1 construct: the whole entry is named; also called TNFSF15
# T1 sequence: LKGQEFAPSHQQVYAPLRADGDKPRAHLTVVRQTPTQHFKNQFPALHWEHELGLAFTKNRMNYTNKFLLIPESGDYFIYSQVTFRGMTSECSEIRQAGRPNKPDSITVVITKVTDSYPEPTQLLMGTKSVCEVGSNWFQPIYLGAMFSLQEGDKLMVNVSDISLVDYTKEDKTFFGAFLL
# experiment.description: SPR Run 7, antibody on Protein A, TL1A 5 ug/mL, timepoint 220
value.type: TL1A Binding Level (Late) (RU)

[[record]]
binder = "320-573 (antibody, human IgG1, name in Kabat numbering, V domains shown, full-length human IgG1, lambda) VH: QVQLVQSGAEVKKPGASVKVSCKASGYTFTSYDINWVRQAPGQGLEWMGWLNPNSGNTGYQQKFQGRVTMTADRSTSTAYMELSSLRSEDTAVYYCAREVPETAAFEYWGQGTLVTVSS VL: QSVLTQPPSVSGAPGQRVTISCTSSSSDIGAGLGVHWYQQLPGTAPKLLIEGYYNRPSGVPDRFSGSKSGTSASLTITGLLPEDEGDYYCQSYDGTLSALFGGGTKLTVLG"
measured_number = 62

[[record]]
binder = "320-513 (antibody, human IgG1, name in Kabat numbering, V domains shown, full-length human IgG1, lambda) VH: QVQLVQSGAEVKKPGASVKVSCKASGYTFTSYDINWVRQAPGQGLEWMGWLNYNSGNTGYAQKFQGRVTMTADRSTSTAYMELSSLRSEDTAVYYCAREVPETAAFEYWGQGTLVTVSS VL: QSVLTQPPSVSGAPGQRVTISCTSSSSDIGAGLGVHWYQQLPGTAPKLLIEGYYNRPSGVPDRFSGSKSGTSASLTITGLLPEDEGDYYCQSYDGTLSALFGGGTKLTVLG"
measured_number = 90

[[record]]
binder = "320-518 (antibody, human IgG1, name in Kabat numbering, V domains shown, full-length human IgG1, lambda) VH: QVQLVQSGAEVKKPGASVKVSCKASGYTFTSYDINWVRQAPGQGLEWMGWLNPHSGNTGYAQKFQGRVTMTADRSTSTAYMELSSLRSEDTAVYYCAREVPETAAFEYWGQGTLVTVSS VL: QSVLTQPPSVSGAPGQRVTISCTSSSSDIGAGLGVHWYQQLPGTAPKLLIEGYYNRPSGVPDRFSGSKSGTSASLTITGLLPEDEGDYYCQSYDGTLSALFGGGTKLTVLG"
measured_number = 153

